For each record, write down the corresponding normalized RNA/DNA level without ligand (log10).
B1: library; a variant is named by its letters at N, in order (parent)
chain: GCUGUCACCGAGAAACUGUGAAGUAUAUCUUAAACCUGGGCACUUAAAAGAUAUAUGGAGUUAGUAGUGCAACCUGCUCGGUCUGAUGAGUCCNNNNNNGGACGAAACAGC

variants of: B1; experiment: normalized RNA/DNA level without ligand (relative to sTRSVctl = 100) (log10 (% of sTRSVctl)); HEK293T; ligand: cyclic di-GMP (c-di-GMP-II aptamer); higher = less ribozyme self-cleavage, higher mRNA level; settings: reporter: mCherry (pCS4076), ligand present: no
Would you mind answering with just the numeric figure?

Query AUAGCG yields normalized RNA/DNA level without ligand (log10) of 1.73

// GGCAAG : normalized RNA/DNA level without ligand (log10) value = 1.55

The variant listed as UGGGUC has a reported normalized RNA/DNA level without ligand (log10) of 1.8

The recorded normalized RNA/DNA level without ligand (log10) for entry CUCACA equals 1.66

Field normalized RNA/DNA level without ligand (log10) (entry AGUACG ) reads 1.58

normalized RNA/DNA level without ligand (log10) reported for this variant CAGAUG : 1.63

Entry GUCACC — recorded normalized RNA/DNA level without ligand (log10) = 1.71

The recorded normalized RNA/DNA level without ligand (log10) for GAGGAG is 1.75

Sure, the documented normalized RNA/DNA level without ligand (log10) for GGUUGC is 1.7

// normalized RNA/DNA level without ligand (log10) lookup, variant = ACCUUU , result: 1.63

AGUCGU yielded normalized RNA/DNA level without ligand (log10) of 1.66

Per the record, CAUUUA has normalized RNA/DNA level without ligand (log10) of 1.32

Quick note, normalized RNA/DNA level without ligand (log10) for GCUUUC landed at 1.58

For record CACGUG the listed normalized RNA/DNA level without ligand (log10) is 1.67

For reference, reported normalized RNA/DNA level without ligand (log10) for GAUCGC stands at 1.74

// AACGAA : normalized RNA/DNA level without ligand (log10) value = 1.38

variant GAUGUC , normalized RNA/DNA level without ligand (log10) observed: 1.71

Entry UUUACA , normalized RNA/DNA level without ligand (log10) reported as 1.73

UUCGAA yielded normalized RNA/DNA level without ligand (log10) of 1.6

Recorded normalized RNA/DNA level without ligand (log10) (variant GAACCC ): 1.82

Query GCGCAG yields normalized RNA/DNA level without ligand (log10) of 1.78

Sample GAUUCU ; normalized RNA/DNA level without ligand (log10) observed: 1.75

Lookup result for CUCCAG ; measured normalized RNA/DNA level without ligand (log10): 1.73

Notebook: GUGAUG , normalized RNA/DNA level without ligand (log10) read as 1.54

Entry under test: GGAGGC . Its normalized RNA/DNA level without ligand (log10) was 1.6

Short answer for GAAAUG : normalized RNA/DNA level without ligand (log10) was 1.55

Entry under test: UUAUCC . Its normalized RNA/DNA level without ligand (log10) was 1.76

normalized RNA/DNA level without ligand (log10) recorded for this variant, GCGGCG , is 1.84

For record GGAAUC the listed normalized RNA/DNA level without ligand (log10) is 1.55

What the record says about CUCGAG : normalized RNA/DNA level without ligand (log10) is 1.71

normalized RNA/DNA level without ligand (log10) for GCUUAG is 1.64

Input CCGCCG . Output normalized RNA/DNA level without ligand (log10): 1.74

The variant listed as UGGGUG shows normalized RNA/DNA level without ligand (log10) equal to 1.73

In plain terms, UGUACA has a documented normalized RNA/DNA level without ligand (log10) of 1.78

Summary for this variant, UCAGGG : normalized RNA/DNA level without ligand (log10) is 1.64

For this variant ( CUACCG ), measured normalized RNA/DNA level without ligand (log10) is 1.82

Data point: UUUCUU ; normalized RNA/DNA level without ligand (log10) = 1.77

The variant identified as GUGAAG registered its normalized RNA/DNA level without ligand (log10) at 1.5

Reported normalized RNA/DNA level without ligand (log10) ( CUUGUG ) = 1.73

Entry AUGUGC , normalized RNA/DNA level without ligand (log10) reported as 1.6

The value of normalized RNA/DNA level without ligand (log10) measured for the variant UAACCC turned out to be 1.77

normalized RNA/DNA level without ligand (log10) for UUCCCA is 1.79

Value of measured normalized RNA/DNA level without ligand (log10) for the entry ACGCAG : 1.68

The recorded normalized RNA/DNA level without ligand (log10) for entry AUGAUG equals 1.6

Per the record, UGGGCU has normalized RNA/DNA level without ligand (log10) of 1.81

In plain terms, AAGUGU has a documented normalized RNA/DNA level without ligand (log10) of 1.6

Origin of measurements: the supplement of paper PMC6757056
